# EXPERIMENTAL_PROTOCOL: Microsomal stability assay, human liver microsomes
# Format: in vitro ADME
# ASSAY_SETUP: 60 min
OUTCOME_MEASURE: Microsomal Stability (human) % rem. 60 min

> print(dat)
                                smiles.code                    result
1  CS(=O)(=O)Nc1cnc2cc(N3CCOCC3)nc(O[C@H]3CC[C@@H](NC(=O)c4ncccn4)CC3)c2c1  G (% remaining = 50-75%)
2  O=C(N[C@H]1CC[C@@H](Oc2nc(N3CCOCC3)cc3ncccc23)CC1)c1ncco1  F (% remaining = 25-50%)
3  O=C(N[C@H]1CC[C@@H](Oc2nc(N3CCOCC3)cc3ncccc23)CC1)c1c[nH]cn1  G (% remaining = 50-75%)
4  O=C(N[C@H]1CC[C@@H](Oc2nc(N3CCOCC3)cc3ncccc23)CC1)c1ccncc1  F (% remaining = 25-50%)

* * *

Listed next: entries and their corresponding IC50.
# ASSAYED_TARGET: DNA-PK (Homo sapiens, UniProt P78527)
# Construct: purchased Invitrogen PR9107A
# EXPERIMENTAL_PROTOCOL: DNA-PK Assay for Biochemical Enzymatic Inhibition (ADP Glo Kinase assay)
# ASSAY_SETUP: Table 1

> print(dat)
                                   compound        result
1  O=C([C@H]1CC[C@@H](Oc2nc(N3CCOCC3)cc3ncccc23)CC1)N1CCOCC1 [Compound 154a]  10 to 150 nM

// lookup IC50 | system=DNA-PK (Homo sapiens, UniProt P78527) | key= O=C(N[C@H]1CC[C@@H](Oc2nc(N3CCOCC3)cc3ncccc23)CC1)c1scnc1Cl
1 to 10 nM

// lookup IC50 | system=DNA-PK (Homo sapiens, UniProt P78527) | key= FC(F)Oc1cnc(N[C@H]2CC[C@@H](Oc3nc(N4CCOCC4)cc4ncccc34)CC2)nc1
1 to 10 nM

// lookup IC50 | system=DNA-PK (Homo sapiens, UniProt P78527) | key= FC(F)(F)c1ccnc(N[C@H]2CC[C@@H](Oc3nc(N4CCOCC4)cc4ncccc34)CC2)n1
1 to 10 nM

// lookup IC50 | system=DNA-PK (Homo sapiens, UniProt P78527) | key= O=C(N[C@H]1CC[C@@H](Oc2nc(N3CCOCC3)cc3ncccc23)CC1)c1cccnc1
< 0.5 nM

* * *

# ASSAYED_TARGET: pDNA-PK ser2056 induction in HCT116 spheroids (Homo sapiens, UniProt P78527)
# Construct: endogenous in cells; host or cells: HCT116 multicellular tumour spheroids
# EXPERIMENTAL_PROTOCOL: Multicellular tumour spheroid + radiation, pDNA-PK inhibition, HCT116
# Assay type: cell-based
# ASSAY_SETUP: Example 8; spheroid; 20 Gy; read-out: Cell line: HCT116 Immunohistochemical endpoint pDNA-PK inhibition EC50
# Method: Multicellular tumour spheroids determination of compound inhibition of pDNA-PK induction following radiation. […] Multicellular tumour spheroids determination of compound inhibition of pDNA-PK induction following radiation. […] For cell survival endpoint 8 Gy radiation was used and 3 hours following radiation spheroids were dissociated, counted and plated for colony forming endpoint. […]
pEC50: −log10 of the molar value.
Listed next: entries and their corresponding pEC50.

// lookup pEC50 | system=pDNA-PK ser2056 induction in HCT116 spheroids (Homo sapiens, UniProt P78527) | key= COc1ccc(C(=O)N[C@H]2CC[C@@H](Oc3nc(N4CCOCC4)cc4ncccc34)CC2)cc1
6.30 to 8.00

// lookup pEC50 | system=pDNA-PK ser2056 induction in HCT116 spheroids (Homo sapiens, UniProt P78527) | key= O=C(N[C@H]1CC[C@@H](Oc2nc(N3CCOCC3)cc3ncccc23)CC1)C1CCCO1 (stereo partly drawn)
4.00 to 5.00

// lookup pEC50 | system=pDNA-PK ser2056 induction in HCT116 spheroids (Homo sapiens, UniProt P78527) | key= CS(=O)(=O)Nc1cnc2cc(N3CCOCC3)nc(O[C@H]3CC[C@@H](n4ccnc4)CC3)c2c1
5.00 to 6.00

// lookup pEC50 | system=pDNA-PK ser2056 induction in HCT116 spheroids (Homo sapiens, UniProt P78527) | key= FC(F)(F)c1cn([C@H]2CC[C@@H](Oc3nc(N4CCOCC4)cc4ncccc34)CC2)cn1 [Compound 17k]
5.00 to 6.00

// lookup pEC50 | system=pDNA-PK ser2056 induction in HCT116 spheroids (Homo sapiens, UniProt P78527) | key= COc1cnc(N[C@H]2CC[C@@H](Oc3nc(N4CCOCC4)cc4ncc(O)cc34)CC2)nc1 [Compound 19c]
5.00 to 6.00

// lookup pEC50 | system=pDNA-PK ser2056 induction in HCT116 spheroids (Homo sapiens, UniProt P78527) | key= Fc1cn([C@H]2CC[C@@H](Oc3nc(N4CCOCC4)cc4ncccc34)CC2)cn1 [Compound 17a]
5.00 to 6.00

// lookup pEC50 | system=pDNA-PK ser2056 induction in HCT116 spheroids (Homo sapiens, UniProt P78527) | key= O=C(N[C@H]1CC[C@@H](Oc2nc(N3CCOCC3)cc3ncccc23)CC1)C1CC1
5.00 to 6.00

// lookup pEC50 | system=pDNA-PK ser2056 induction in HCT116 spheroids (Homo sapiens, UniProt P78527) | key= Nc1cnc2cc(N3CCOCC3)nc(O[C@H]3CC[C@@H](n4ccnc4)CC3)c2c1
5.00 to 6.00

// lookup pEC50 | system=pDNA-PK ser2056 induction in HCT116 spheroids (Homo sapiens, UniProt P78527) | key= O=C(N[C@H]1CC[C@@H](Oc2nc(N3CCOCC3)cc3ncccc23)CC1)C1(O)CC1
4.00 to 5.00

// lookup pEC50 | system=pDNA-PK ser2056 induction in HCT116 spheroids (Homo sapiens, UniProt P78527) | key= O=C(N[C@H]1CC[C@@H](Oc2nc(N3CCOCC3)cc3ncccc23)CC1)c1ccccc1
5.00 to 6.00
